Data credit: ChEMBL document CHEMBL4017465

target: Cytochrome P450 3A4 (Homo sapiens, UniProt P08684); assay: Inhibition of recombinant human CYP3A4 expressed in insect cells using DBOMF as substrate pretreated for 10 mins followed by substrate addition measured every minute for 15 mins in presence of NADP+ by fluorescence assay
Sequence (P08684 whole entry): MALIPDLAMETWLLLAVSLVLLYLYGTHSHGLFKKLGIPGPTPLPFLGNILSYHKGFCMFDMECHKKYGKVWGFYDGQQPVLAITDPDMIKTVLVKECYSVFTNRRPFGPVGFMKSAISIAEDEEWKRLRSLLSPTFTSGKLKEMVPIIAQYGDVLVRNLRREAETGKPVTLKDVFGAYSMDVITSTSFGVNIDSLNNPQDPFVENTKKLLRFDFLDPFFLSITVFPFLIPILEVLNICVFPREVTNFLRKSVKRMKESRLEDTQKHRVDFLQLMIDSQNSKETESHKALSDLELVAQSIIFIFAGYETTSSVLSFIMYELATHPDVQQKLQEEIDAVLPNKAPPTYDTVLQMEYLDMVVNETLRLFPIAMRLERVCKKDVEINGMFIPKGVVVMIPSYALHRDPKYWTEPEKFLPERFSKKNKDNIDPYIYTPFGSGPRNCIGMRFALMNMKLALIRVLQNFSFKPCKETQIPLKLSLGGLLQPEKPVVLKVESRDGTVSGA
Each entry below carries its recorded IC50.

COc1ccc(CNc2c3c(nc4cc(Cl)ccc24)CCCC3)cc1OC    13.8 µM
COc1ccc(CNc2c3c(nc4ccccc24)CCCC3)cc1OC    3.7 µM

Measured IC50 of Clc1ccc2c(NCc3ccccn3)c3c(nc2c1)CCCC3 : 9.1 µM

* * *

Target: UniProtKB P05177
Sequence (P05177 whole entry): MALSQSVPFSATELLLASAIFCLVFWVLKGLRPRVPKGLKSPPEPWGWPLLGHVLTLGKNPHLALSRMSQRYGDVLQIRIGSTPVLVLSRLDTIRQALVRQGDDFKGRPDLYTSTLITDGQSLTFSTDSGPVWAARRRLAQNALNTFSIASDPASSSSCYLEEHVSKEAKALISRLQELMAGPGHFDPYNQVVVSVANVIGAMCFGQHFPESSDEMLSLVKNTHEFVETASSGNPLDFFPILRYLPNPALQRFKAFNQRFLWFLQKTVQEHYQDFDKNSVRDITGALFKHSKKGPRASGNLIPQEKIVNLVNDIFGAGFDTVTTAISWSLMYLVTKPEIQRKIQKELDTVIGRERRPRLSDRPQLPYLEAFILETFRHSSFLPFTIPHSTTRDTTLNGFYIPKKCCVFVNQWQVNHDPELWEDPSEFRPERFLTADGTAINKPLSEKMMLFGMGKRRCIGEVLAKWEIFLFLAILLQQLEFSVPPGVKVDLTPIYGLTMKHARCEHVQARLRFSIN
Assay: Inhibition of recombinant human CYP1A2 expressed in insect cells at 0.01 uM using EOMCC as substrate pretreated for 10 mins followed by substrate addition measured every minute for 15 mins in presence of NADP+ by fluorescence assay relative to control
Settings: probe EOMCC
measurement_type: inhibition at 0.25 h, 0.01 µM (%)
# unit: % | format: bare number

Measured inhibition at 0.25 h, 0.01 µM of Nc1c2c(nc3ccccc13)CCCC2 [TACRINE] : 14
